# target system: UniProtKB B7Z4L2
# Sequence (B7Z4L2 whole entry): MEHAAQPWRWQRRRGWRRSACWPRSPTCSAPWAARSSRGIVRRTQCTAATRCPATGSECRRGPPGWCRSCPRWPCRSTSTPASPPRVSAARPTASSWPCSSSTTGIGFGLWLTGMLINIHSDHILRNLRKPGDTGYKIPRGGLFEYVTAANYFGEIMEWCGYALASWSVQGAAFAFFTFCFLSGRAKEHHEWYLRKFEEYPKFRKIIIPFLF
# assay: 5α-Reductase Activity Assay
# condition set: pH 6.5; 37 °C
# Procedure: The reaction mixture contained a final volume of 1 mL: 1 mM dithiothreitol, sodium phosphate buffer 40 mM, at pH 6.5 for human prostate, 2 mM NADPH, 2 nM [1,2,6,7-3H]T [Cabeza et al., Steroids 60:630-5]. […] The steroid carriers were detected using phosphomolybdic acid reagent (DHT) and with an ultraviolet (UV) lamp (254 nm) (T). […] The radioactivity was determined in a scintillation counter (Packard Tri-Carb 2100 TR). […]
readout label: IC50 (nM)
Numeric answer only, unit nM assumed.

Illustrative cases are given below, each with its answer.
* CC(C)(C)NC(=O)C1CCC2C3CCC4NC(=O)C=C[C@]4(C)C3CC[C@]12C (stereo not given in full) [Finasteride (3)] | 8.5
* CC(=O)O[C@]1(C(C)=O)CCC2C3C(CC[C@@]21C)[C@@]1(C)CCC(=O)C=C1[C@H]1O[C@@H]31 (stereo not given in full) | 22
* CC(=O)O[C@]1(C(C)=O)CCC2C3CCC4=CC(=O)CC[C@]4(C)C3CC[C@@]21C (stereo partly drawn) [17α-Acetoxyprogesterone (6)] | 10

Any idea what IC50 was measured for CC(=O)O[C@]1(C(C)=O)CCC2C3C=CC4=CC(=O)CC[C@]4(C)C3CC[C@@]21C (stereo not given in full) ?
70

Any idea what IC50 was measured for CC(=O)O[C@]1(C(C)=O)CCC2C3C=C(Cl)C4=CC(=O)CC[C@]4(C)C3CC[C@@]21C (stereo not given in full) ?
19

Cited source for all entries: BindingDB's records for doi:10.3109/14756360903179401
